The reported measurements were obtained from paper PMC9482650.

SYSTEM_NAME: MAGI1_2, Q96QZ7
Sequence (Q96QZ7 456-580): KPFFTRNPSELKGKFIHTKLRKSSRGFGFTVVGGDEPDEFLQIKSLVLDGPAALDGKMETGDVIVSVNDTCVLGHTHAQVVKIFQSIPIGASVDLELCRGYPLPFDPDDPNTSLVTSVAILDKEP
PROTOCOL_DESCRIPTION: holdup assay
Design: key: below the threshold = too weak to quantify, mostly under pKd 3.1 to 4
APPLIED_CONDITIONS: plain residues with an end cap or a label only (N-terminal biotin on a linker: ado-ado)
MEASURED_QUANTITY: pKd

[[record]]
binder = "QGPVETESVV [SLC45A4, Q5BKX6]"
assay_result = "below the threshold"

[[record]]
binder = "TKGPRGPTRV [SAPCD1, Q5SSQ6]"
assay_result = 4.19

[[record]]
binder = "GQEEQVTTRL [TRPC5, Q9UL62]"
assay_result = "below the threshold"

[[record]]
binder = "HSGYRLNDYV [CLDN14, O95500]"
assay_result = "below the threshold"

[[record]]
binder = "NHSSSPETTA [TRMT13, Q9NUP7]"
assay_result = "below the threshold"

[[record]]
binder = "HLRARKSEWV [GJD4, Q96KN9]"
assay_result = "below the threshold"

[[record]]
binder = "QGLAERISVL [PRKD2, Q9BZL6]"
assay_result = "below the threshold"

[[record]]
binder = "DTTVPESEDL [MYOZ2, Q9NPC6]"
assay_result = "below the threshold"

[[record]]
binder = "LKVPPEERLI [CRB2, Q5IJ48]"
assay_result = "below the threshold"

[[record]]
binder = "TLPRKRMSSI [GPRC6A, Q5T6X5]"
assay_result = "below the threshold"

